Tested on: SK-OV-3 ovarian
Assay: NCI tumour cell line growth inhibition, 48 h
measured.metric: TGI

1. CCCCCCCCCCCC1=NC(C)(C)CN1CC(C)O (stereo not drawn) | 24.8 µM
2. COc1cc(C2c3cc(OC)c(OC)c(O)c3C(=O)C3CCC(=O)N32)cc(OC)c1OC (stereo not drawn) | > 100 µM
3. Nc1c(C(=O)NC23CC4CC(CC(C4)C2)C3)[n+]([O-])c2ccccc2[n+]1[O-] | > 100 µM
4. C[N+]1([O-])[C@H]2CC(OC(=O)[C@H](CO)c3ccccc3)C[C@H]1[C@H]1O[C@H]12 (stereo partly drawn) | > 100 µM

In plain terms, CCCCCCCCCCCCCCCC(=O)OCC1OC(OC)C(NC(=O)N(CCCl)N=O)C(O)C1O (stereo not drawn) has a documented TGI of 63 µM

TGI reading for O=C(Oc1ccccc1Cl)c1ccccc1Nc1cccc(C(F)(F)F)c1 : > 100 µM

COC1=CC(=O)c2nc3ccccc3c3ccnc1c23 yielded TGI of > 100 µM

----------
The entries below are paired with their reported TGI.
Test system: SW-620 colon
Assay: NCI tumour cell line growth inhibition, 48 h

Reference set (3 entries):
1. CCOC(=O)c1ccccc1SC(C[N+](=O)[O-])c1ccccc1 (centres undefined) | 4.7 µM
2. N#Cc1ccc2[nH]c3c(c2c1)CC(=O)Nc1ccccc1-3 | > 100 µM
3. COc1cc(/C(=C2/O[C@@H]([C@H]3COC(C)(C)O3)[C@H]3OC(C)(C)O[C@@H]23)c2ccc3c(c2)OCO3)cc(OC)c1OC | > 25 µM

Now consider the entry below.
Item: COc1cc(O)cc(O)c1C(=O)CC(Cl)(Cl)Cl | TGI: > 100 µM

----------
Tested on: DU-145 prostate
Assay: NCI tumour cell line growth inhibition, 48 h
Where a SMILES comes first, the peptide text is derived from it. Side-chain parts run from the residue outwards. The star is where a group is joined. Cbz = O=C(OCc1ccccc1)*; Boc = CC(C)(C)OC(=O)*
measured.metric: TGI

Consider the worked cases shown below.
1) CCC(=O)N1C(=O)C(CC)(CC)C(=O)N1C(=O)CC | > 100 µM
2) O=C(Cc1csc2nc(-c3ccc(Br)cc3)cn12)N/N=C/c1ccc(Cl)cc1Cl | > 100 µM
3) Cc1ccc2nc3c(n2c1)C(=O)C(=O)c1ccccc1-3 | 1.12 µM
4) CN(C)C=NCC(O)c1ccccc1 (stereo unspecified) | > 100 µM
5) C[C@@H](Oc1cc(-n2cnc3ccc(OCC4CCN(C)CC4)cc32)sc1C(N)=O)c1ccccc1Cl | 0.141 µM

Item: CC(C)(C)OC(=O)NC(CCCCNC(=O)CNC(=O)OCc1ccccc1)C(=O)NC(CCCCNC(=O)CNC(=O)OCc1ccccc1)C(=O)NC(CCCCNC(=O)CNC(=O)OCc1ccccc1)C(=O)NC(CCCCNC(=O)CNC(=O)OCc1ccccc1)C(=O)O (stereo unspecified) (Boc-K([Gly-Cbz])K([Gly-Cbz])K([Gly-Cbz])K([Gly-Cbz])-OH; configuration not given here) | System: DU-145 prostate | TGI: > 100 µM

The reported DU-145 prostate TGI of COc1cc([C@@H]2c3cc4c(cc3[C@@H](c3c(O)cc(O)c5c3O[C@H](c3ccc(O)c(O)c3)[C@H](OC(=O)c3cc(O)c(O)c(O)c3)C5)[C@H]3COC(=O)[C@H]23)OCO4)cc(OC)c1O is > 100 µM

The reported TGI value, DU-145 prostate, for O=C(Oc1ccccc1Cl)c1ccccc1Nc1cccc(C(F)(F)F)c1 reads 89 µM

GET /values?item= CC1C(C#N)(C#N)C(C#N)=C(N)C1(C)[N+](=O)[O-] (stereo unspecified) &system= DU-145 prostate returns TGI: > 100 µM

Bench note, DU-145 prostate: entry CN(/N=C/c1ccc(Cl)cc1)C1=NCCCCN1 , its TGI = > 100 µM

Param item: O=C1O[C@H]2C3C4CCC(C4[C@@H]2I)[C@H]13 (stereo partly specified) ; param system: DU-145 prostate; output TGI: > 100 µM

----------
Quick reference for TGI among some molecules
Test system: SR leukemia
Assay: NCI tumour cell line growth inhibition, 48 h

Below: 5 molecules and their reported TGI.
1) C1=CN2C[n+]3ccc4ccccc4c3N=C2c2ccccc21 | 4.66 µM
2) CN1C=COC1N=C1CCCCC1 (stereo not given) | > 100 µM
3) CCOC(=O)c1ccccc1SC(C[N+](=O)[O-])c1ccccc1 (stereo not given) | 8.97 µM
4) CCC(=O)N1C(=O)C(CC)(CC)C(=O)N1C(=O)CC | > 100 µM
5) O=C1CCNC(=O)NC1 | > 100 µM

molecule CCOC(=O)C1=C(c2ccccc2)C12N(Cc1ccccc1)C(=O)C2(c1ccccc1)c1ccccc1 (stereo not given) , TGI observed: > 100 µM

For reference, reported TGI for COc1cc(S(=O)(=O)Nc2ccc(-c3csc(N4C(=O)C(C)SC4c4ccccc4)n3)cc2)ccc1Cl (stereo not given) stands at > 100 µM

Just so you know, measured TGI for CN(C)CC1CCCCCC(Br)C1=O (stereo not given) came out at 7.14 µM

Lab note: measured TGI of CC(=O)N1C(Nc2cccc3nc(C)ccc23)CCN1c1ccccc1 (stereo not given) was > 10 µM

Reported TGI for CCCC(C)c1c(Cl)nc(Cl)nc1Cl (stereo not given) was > 100 µM

----------
System: RXF 393 renal
Test: NCI tumour cell line growth inhibition, 48 h
measured.metric: TGI

Answered examples (5):
1. COc1cc(S(=O)(=O)Nc2ccc(-c3csc(N4C(=O)C(C)SC4c4ccccc4)n3)cc2)ccc1Cl (centres undefined) | 47.4 µM
2. COc1ccc(C2=C(Cl)c3cc(OC)c(OC)cc3C2)cc1OC | 73.7 µM
3. CCSc1ccc([C@@H]2[C@@H](N)C(=O)N2c2cc(OC)c(OC)c(OC)c2)cc1 | > 100 µM
4. COc1cc(/C=C/C(=N\NC(=S)NN)c2sc(NNC(C)=O)nc2C)ccc1O | > 100 µM
5. Cc1ccc(-c2cc(-c3ccc(C)cc3)nc(N3CCN(CCNc4ccnc5cc(Cl)ccc45)CC3)n2)cc1 | 7.36 µM

// assay RXF 393 renal, entry CCOC(=O)c1ccccc1SC(C[N+](=O)[O-])c1ccccc1 (centres undefined) , TGI value = 3.09 µM

// TGI (RXF 393 renal) for CCCCCCCCCCCCCCCC(=O)OCC1OC(OC)C(NC(=O)N(CCCl)N=O)C(O)C1O (centres undefined) = 32.7 µM

Simply: CN(C)C(=S)/N=c1\ss/c(=N\C(=S)N(C)C)n1Cc1ccco1 , RXF 393 renal, TGI = > 100 µM

Here O=C(CSCC(=O)N/N=C\c1ccccc1F)N/N=C\c1ccccc1F was tested on RXF 393 renal, and its TGI came to > 100 µM

Oc1ccc(Oc2cnc3cc(Cl)ccc3n2)cc1 tested on RXF 393 renal gave TGI: > 100 µM

TGI of O=c1c2cc(I)ccc2nc(SCc2nnco2)n1Cc1ccccc1 , assay on RXF 393 renal, is > 100 µM

COc1cc(O)cc(O)c1C(=O)CC(Cl)(Cl)Cl on RXF 393 renal gives TGI = > 100 µM

Response field TGI (RXF 393 renal) for item CCC(C)c1cccc(C)c1NC(=O)C(=O)Cc1nc2ccccc2s1 (centres undefined) : > 100 µM

RXF 393 renal assay, molecule N#Cc1c(N2CCCC2)nsc1Nc1ccc(F)cc1 , recorded TGI = > 100 µM

----------
Test system: K-562 leukemia
Assay: NCI tumour cell line growth inhibition, 48 h
measured.metric: TGI

Example compounds with recorded TGI:
1. COc1cc(/C(=C2/O[C@@H]([C@H]3COC(C)(C)O3)[C@H]3OC(C)(C)O[C@@H]23)c2ccc3c(c2)OCO3)cc(OC)c1OC | > 25 µM
2. Nc1ccccc1OCCCOc1ccccc1N | > 100 µM
3. CCOC(=O)C(NC(=O)CC)(Nc1ccc(S(=O)(=O)Nc2ccc(OC)nn2)cc1)C(F)(F)F (stereo not given) | > 100 µM
4. CN(C)C(=S)/N=c1\ss/c(=N\C(=S)N(C)C)n1Cc1ccco1 | > 100 µM

Here is another compound to look at.
The recorded TGI for entry CCC(C)c1cccc(C)c1NC(=O)C(=O)Cc1nc2ccccc2s1 (stereo not given) equals > 100 µM

----------
Test system: T-47D breast
Test: NCI tumour cell line growth inhibition, 48 h
measured.metric: TGI

1. CCN(CC)c1ccc2cc(C(N)=O)c(=Nc3ccc(F)cc3)oc2c1 | > 100 µM
2. COc1cc([C@@H]2c3cc4c(cc3[C@@H](c3c(O)cc(O)c5c3O[C@H](c3ccc(O)c(O)c3)[C@H](OC(=O)c3cc(O)c(O)c(O)c3)C5)[C@H]3COC(=O)[C@H]23)OCO4)cc(OC)c1O | > 100 µM

TGI recorded for this molecule, COC1C(CO)OC(n2c3c(Cl)cccc3c3c4c(c5c6cccc(Cl)c6[nH]c5c32)C(=O)NC4=O)C(O)C1O (centres undefined) , is > 21.1 µM

Item: O=C(Cc1ccc(Nc2ccnc(C(F)(F)F)c2)cc1)Nc1cc(Cl)ccc1O | TGI: 11.3 µM
